Recorded values, source the supplement of paper PMC13380429.

Recorded inhibition of SARS-CoV-2 cytopathic effect by entry
# Test system: Vero E6 infected with SARS-CoV-2
# measurement-protocol: inhibition of SARS-CoV-2 cytopathic effect; higher = more antiviral protection, active = above 15
# test-parameters: 100 nM; 48 h
measurement-name: inhibition of SARS-CoV-2 cytopathic effect

{"columns": ["compound", "test-value"],
 "data": [
  ["COc1cc(N)c(Cl)cc1C(=O)N[C@@H]1CCN(CCCOc2ccc(F)cc2)C[C@@H]1OC (racemic) [cisapride]", "1.02% (inactive)"],
  ["C[C@H]1C[C@@H]2[C@H]([C@@H](O)C[C@@]3(C)[C@H]2CC[C@]3(O)C(=O)COC(=O)CCC(=O)O)[C@@]2(C)C=CC(=O)C=C12 [methylprednisolone-sodium-succinate]", "0.5% (inactive)"],
  ["Nc1nc(Nc2ccc(S(N)(=O)=O)cc2)nn1C(=O)c1c(F)cccc1F", "0.15% (inactive)"],
  ["CN(C)CC[C@@]1(c2ccc(Cl)cc2)Cc2ccccc2C(=O)O1 (racemic)", "-1.71% (inactive)"],
  ["O=C(O)c1ccc(N2C(=O)/C(=C/c3ccc(-c4ccc([N+](=O)[O-])cc4)o3)C=C2c2ccccc2)cc1", "1.72% (inactive)"],
  ["O=C(O)c1ccc(OCCn2ccnc2)cc1 [dazoxiben]", "3.5% (inactive)"],
  ["CN[C@@H](C)C(=O)N[C@H](C(=O)N1CCC[C@H]1C(=O)Nc1sc(-c2ncco2)nc1-c1ccccc1)C1CCCCC1", "-0.7% (inactive)"],
  ["CCCCCCc1ccc(O)cc1O [hexylresorcinol]", "2.21% (inactive)"]
]}

* * *

# System: Vero E6 infected with SARS-CoV-2
# measurement-protocol: inhibition of SARS-CoV-2 cytopathic effect; higher = more antiviral protection, active = above 15
# test-parameters: 1 nM; 48 h
measurement-name: inhibition of SARS-CoV-2 cytopathic effect

{"columns": ["compound", "test-value"],
 "data": [
  ["C=C1C(=O)O[C@@H]2/C=C(\\C)CC/C=C(\\C)CC[C@@H]12 [costunolide]", "-0.97% (inactive)"],
  ["NC(=O)OCC(COC(N)=O)c1ccccc1 [felbamate]", "1.11% (inactive)"],
  ["Cc1oc2nc3c(c(NC(=O)CN4CCCC4=O)c2c1C)CCCC3", "0.92% (inactive)"],
  ["CCc1ccccc1OC[C@@H](O)CN[C@H]1CCCc2ccccc21", "-1.78% (inactive)"],
  ["Cc1c(C)c2c(c(C)c1OC(=O)CCC(=O)O)CC[C@@](C)(CCC[C@H](C)CCC[C@H](C)CCCC(C)C)O2 [D-alpha-tocopheryl-succinate]", "-5.51% (inactive)"],
  ["CC(C)(C)Cn1c(N)nc2ccc(-c3[nH]c(C(C)(C)C)nc3-c3ccc(F)cc3)nc21", "2.2% (inactive)"],
  ["CCNC1(C(N)=O)CCN(c2ncnc3c2nc(-c2ccccc2Cl)n3-c2ccc(Cl)cc2)CC1", "-2.1% (inactive)"],
  ["CCn1cc(-c2cccc(C(F)(F)F)c2)c2sc(C(=N)NC3CCS(=O)(=O)CC3)cc2c1=O", "1.59% (inactive)"],
  ["COCC(=O)O[C@]1(CCN(C)CCCc2nc3ccccc3[nH]2)CCc2cc(F)ccc2[C@@H]1C(C)C [mibefradil]", "-2.83% (inactive)"],
  ["Oc1ccc(Nc2nc(-c3ccc(Cl)cc3)cs2)cc1", "0.33% (inactive)"],
  ["CC(C)(C)NS(=O)(=O)c1cncc(-c2cc(F)c3nc(N)nn3c2)c1", "3.23% (inactive)"],
  ["CCc1cc(O)c(Oc2ccc(C(N)=O)cc2F)cc1F", "0.22% (inactive)"],
  ["Nc1ccc(C(=O)O)cc1 [potassium-p-aminobenzoate]", "-5.31% (inactive)"],
  ["N[C@@H](CS(=O)O)C(=O)O [L-cysteinesulfinic-acid]", "0.48% (inactive)"],
  ["Cn1c(=O)cc(N2CCC[C@@H](N)C2)n(Cc2cc(F)ccc2C#N)c1=O [trelagliptin]", "-1.51% (inactive)"],
  ["NC(=O)N1c2ccccc2CC(O)c2ccccc21 (configuration not stated) [licarbazepine]", "-1.75% (inactive)"],
  ["COC[C@@H](NC(C)=O)C(=O)NCc1ccccc1 [Lacosamide]", "-11.7% (inactive)"],
  ["CCCN1CCC[C@@H]2Cc3nc(N)ncc3C[C@H]21 [quinelorane]", "0.91% (inactive)"],
  ["O=C(NCCN1CCOCC1)c1ccc(Cl)cc1 [moclobemide]", "1.23% (inactive)"],
  ["N=C(N)c1ccc(OCCCCCOc2ccc(C(=N)N)cc2)cc1 [pentamidine]", "-3.18% (inactive)"],
  ["O=C(O)CCc1nc(-c2ccccc2)c(-c2ccccc2)o1 [oxaprozin]", "-1.4% (inactive)"],
  ["NC(N)=Nc1nc(CSCC/C(N)=N/S(N)(=O)=O)cs1 [famotidine]", "-4.18% (inactive)"],
  ["CCOP(=S)(OCC)Oc1cc(C)nc(C(C)C)n1 [dimpylate]", "1.47% (inactive)"],
  ["CCOC1O[C@H]([C@@H](COCc2ccccc2)OCc2ccccc2)[C@H](OCc2ccccc2)[C@H]1O (some centres not stated) [tribenoside]", "-7.21% (inactive)"],
  ["COc1ccc2c(C(=S)N(C)CC(=O)O)cccc2c1C(F)(F)F [tolrestat]", "0.38% (inactive)"],
  ["CC(O)c1cc(C(=O)N[C@@H](C)Cn2ccc(-c3ccc(C#N)c(Cl)c3)n2)n[nH]1 (some centres not stated)", "1.69% (inactive)"],
  ["CNCCCCOc1ccccc1Cc1ccccc1 [bifemelane]", "-0.64% (inactive)"],
  ["O=C(Nc1cc(-c2ccccc2)nn1-c1ccccc1F)c1ccc([N+](=O)[O-])cc1", "-0.89% (inactive)"],
  ["O=C(O)c1cc(=O)c2ccccc2[nH]1 [kynurenic-acid]", "3.61% (inactive)"],
  ["O=c1[nH]c(=O)n([C@H]2CCCO2)cc1F (racemic) [ftorafur]", "0.19% (inactive)"],
  ["CC(=O)c1ccc(S(=O)(=O)NC(=O)NC2CCCCC2)cc1 [acetohexamide]", "-0.51% (inactive)"],
  ["COC(=O)[C@H](c1ccccc1Cl)N1CCc2sccc2C1 [clopidogrel]", "0.4% (inactive)"],
  ["COCc1nnc(N2CC(Oc3ccc(F)cc3Cl)C2)n1-c1ccc(OC)nc1", "-1.23% (inactive)"],
  ["COc1cc2c(cc1OC)CC(=O)N(CCCN(C)C[C@H]1Cc3cc(OC)c(OC)cc31)CC2 [ivabradine]", "-0.16% (inactive)"],
  ["O=C1NC(=O)/C(=C/c2ccc(-c3ccc(F)cc3O)o2)S1", "-0.52% (inactive)"],
  ["Cc1c(F)cccc1NC(=O)Nc1ccc(Cl)c(S(=O)(=O)[C@H]2CCCNC2)c1O [danirixin]", "-0.94% (inactive)"],
  ["CCNC(=O)[C@@H]1CCCN1C(=O)[C@H](CCCNC(=N)N)NC(=O)[C@H](CC(C)C)NC(=O)[C@@H](C)NC(=O)[C@H](Cc1ccc(O)cc1)NC(=O)[C@H](CO)NC(=O)[C@H](Cc1c[nH]c2ccccc12)NC(=O)[C@H](Cc1cnc[nH]1)NC(=O)[C@@H]1CCC(=O)N1 [alarelin]", "-0.73% (inactive)"]
]}

* * *

Recorded inhibition of SARS-CoV-2 cytopathic effect by entry
# System: Vero E6 infected with SARS-CoV-2
# measurement-protocol: inhibition of SARS-CoV-2 cytopathic effect; higher = more antiviral protection, active = above 15
# test-parameters: 8.33 nM; 48 h
measurement-name: inhibition of SARS-CoV-2 cytopathic effect (%)

{"columns": ["compound", "test-value"],
 "data": [
  ["O=c1ccn([C@@H]2O[C@H](COP(=O)(O)OP(=O)(O)OP(=O)(O)O)[C@@H](O)[C@H]2O)c(=O)[nH]1", 1.84],
  ["CCCCOc1cc(C(=O)NCCN(CC)CC)c2ccccc2n1", -0.71],
  ["Cc1cc(O)cc(C)c1Cl", 1.72],
  ["CC1(C)CCC(C)(C)c2cc(C3(c4ccc5cc(C(=O)O)ccc5c4)SCCS3)ccc21", 2.69],
  ["CCC/N=C1\\S/C(=C\\c2ccc(OC[C@H](O)CO)c(Cl)c2)C(=O)N1c1ccccc1C", -0.6],
  ["N=C(N)c1ccc(/C=C/c2ccc(C(=N)N)cc2O)cc1 [hydroxystilbamidine]", -1.76],
  ["FC(F)OC(F)(F)C(F)Cl (stereo not drawn)", 0.43],
  ["COC(=O)N[C@H](C(=O)N[C@@H](Cc1ccccc1)[C@@H](O)CN(Cc1ccc(-c2ccccn2)cc1)NC(=O)[C@@H](NC(=O)OC)C(C)(C)C)C(C)(C)C", 2.1],
  ["O=[N+]([O-])c1cc([As](=O)(O)O)ccc1O", -2.76],
  ["N#Cc1cccc(C(=O)Nc2cc(-c3ccccc3)nn2-c2ccccc2)c1", 4.71],
  ["CCNCCS(=O)(=O)NC[C@@]1(c2ccccc2)SC(NC(=O)C(C)(C)C)=NN1C(=O)C(C)(C)C", 5.24],
  ["C=CC(=O)Nc1cc(Nc2nccc(-c3cn(C)c4ccccc34)n2)c(OC)cc1N(C)CCN(C)C", 0.08],
  ["CN1C(=O)N(c2cc(Cl)cc(Cl)c2)C(=O)[C@]12CN(Cc1cc(C(=O)O)cs1)C[C@H]2c1ccc(C#N)cc1", 0.44],
  ["C[C@H](O)[C@H](O)[C@H]1CNc2nc(N)[nH]c(=O)c2N1", 2.62],
  ["N#Cc1ccc(Oc2ccc3c(c2)COB3O)cc1", 0.97],
  ["CN1CCC(c2c[nH]c3ccc(O)cc23)CC1", 2.91],
  ["N#Cc1ccc(-c2ccc(S(=O)(=O)Nc3cccc(N)n3)cc2)cc1", 3.14],
  ["CCc1cc2c(s1)-n1c(C)nnc1CN=C2c1ccccc1Cl", 2.54]
]}
